Biological target: Retinoic acid receptor alpha (Homo sapiens) (UniProt P10276)
Sequence (P10276 whole entry, looked up): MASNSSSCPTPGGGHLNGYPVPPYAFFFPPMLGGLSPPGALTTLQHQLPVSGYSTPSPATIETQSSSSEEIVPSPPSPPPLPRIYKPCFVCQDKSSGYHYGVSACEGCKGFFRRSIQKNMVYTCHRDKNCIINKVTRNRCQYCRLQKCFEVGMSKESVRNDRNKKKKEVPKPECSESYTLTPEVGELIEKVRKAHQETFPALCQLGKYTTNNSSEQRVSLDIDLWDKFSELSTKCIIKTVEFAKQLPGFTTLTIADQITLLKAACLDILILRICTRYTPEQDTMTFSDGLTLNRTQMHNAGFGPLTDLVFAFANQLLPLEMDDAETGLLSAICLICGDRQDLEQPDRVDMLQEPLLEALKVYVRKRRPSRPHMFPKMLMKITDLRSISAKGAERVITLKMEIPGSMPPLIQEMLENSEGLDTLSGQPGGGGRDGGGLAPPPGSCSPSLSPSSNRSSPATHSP
Test: ATG_RARa_TRANS: Attagene TRANS-FACTORIAL HepG2 Assay for human Retinoic Acid Receptor alpha (RARa) (AID 2283005);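 for AC50: potency for increased reporter signal meaning RARa activation over DMSO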
Procedure: ATG_TRANS is a cell-based, multiplexed-readout assay that uses HepG2, a human liver cell line, with measurements taken at 24 hours after chemical dosing in a 24-well plate.ATG_RARa_TRANS is one of 30 assay component(s) measured or calculated from the ATG_TRANS assay. […] This assay endpoint, ATG_RARa_TRANS, was analyzed in the positive analysis fitting direction relative to DMSO as the negative control and baseline of activity. […]
Records with an inconclusive call do not appear. Calls of active or inactive are those of the source. Rule for the calls: active = hit-call score of the fitted dose curve at least 0.9, where 1 is the maximum; inconclusive = response in the unintended direction; inactive = score below 0.9.
metric: AC50

Below, 4 compounds whose answers are already recorded.
INSERT INTO assay_data (moleculesmiles, metric, observedresult) VALUES
  ('O=C(O)C(F)(F)C(F)(F)C(F)(F)C(F)(F)C(F)(F)C(F)(F)C(F)(F)C(F)(F)C(F)(F)C(F)(F)C(F)(F)C(F)(F)F', 'AC50', 'inactive'),
  ('Nc1cc(Cl)c(N)c(Cl)c1', 'AC50', '43 µM (active)'),
  ('FC(F)(F)C(F)(F)C(F)(F)N(C(F)(F)C(F)(F)C(F)(F)F)C(F)(F)C(F)(F)C(F)(F)F', 'AC50', 'inactive'),
  ('CCc1c(Br)c(Br)c(Br)c(Br)c1Br', 'AC50', 'inactive');

Kindly consider the entry below.
Query block: Data request, read-out AC50, for "OC[C@@H](O)[C@@H](O)[C@H](O)[C@@H](O)CO"
Result block: inactive

FYI, the data here is from PubChem BioAssay (EPA / NIEHS).
